test: soluble fraction after stress (log2 fold change); higher = more stays soluble; pooled small domains, quantitative proteomics; conditions: stress: 50 degC
Hi there, I'd appreciate the recorded soluble fraction (log2) for every entry that follows.
The answer should be written as a number, with no unit following it.

What value of soluble fraction (log2) has been recorded for this entry: HMTKTSQEDEDIMRHLDELHTRWPFLGQRKLIEELKDQGIQIGRKRLRRLMKVMGIEAIAPK
-1.29

Similarly, HMVSKEELANSIYENKTADELGNIVLRKGKYSGEMLRTIYVKDIGYLEWHSKQSYEYSNAVKWYLKKLE ?
-1.21

Entry HMIDELLDPTHRIMVRHPRVDYVSPGFLIGPDKDVILWGFTGGIIARLFDFLGWTRPWDQSHVQDLPPYML please
-0.202

// repeat for HMSEFAYPISLNGKTKFNLALSLALTKEEIEKEVLANADVQKFLNGQTPKKLIVVPGKIVNVV and report
-0.322

Entry HMRKMELTEAAEKLIEEPDVVSAYRNMQQIFQQWREIGPVPREQRDEVWSHFKDLMTQVNRRHQAHFEN please
-0.0451

And for HMDKENVLQLQKDLLRLSVNALEKRYYQFSDILLLKYILPLVPKEISIDDQSRLRSLLSGIN ?
-0.238

Subsequent entry: HMGVSLREVPVAEHGDWIGRPIKELGIPAEVLIVLVRRADGTTVVPKGGTVLQQGDMLVVNEWEE
-0.426

Entry HMKAGRNTLARQMAILEVLQKDGRALVDDLAARFETTPQTIRKDLSALAEVNQISRFHGGAALVG please
-0.0796
